Target protein (sequence): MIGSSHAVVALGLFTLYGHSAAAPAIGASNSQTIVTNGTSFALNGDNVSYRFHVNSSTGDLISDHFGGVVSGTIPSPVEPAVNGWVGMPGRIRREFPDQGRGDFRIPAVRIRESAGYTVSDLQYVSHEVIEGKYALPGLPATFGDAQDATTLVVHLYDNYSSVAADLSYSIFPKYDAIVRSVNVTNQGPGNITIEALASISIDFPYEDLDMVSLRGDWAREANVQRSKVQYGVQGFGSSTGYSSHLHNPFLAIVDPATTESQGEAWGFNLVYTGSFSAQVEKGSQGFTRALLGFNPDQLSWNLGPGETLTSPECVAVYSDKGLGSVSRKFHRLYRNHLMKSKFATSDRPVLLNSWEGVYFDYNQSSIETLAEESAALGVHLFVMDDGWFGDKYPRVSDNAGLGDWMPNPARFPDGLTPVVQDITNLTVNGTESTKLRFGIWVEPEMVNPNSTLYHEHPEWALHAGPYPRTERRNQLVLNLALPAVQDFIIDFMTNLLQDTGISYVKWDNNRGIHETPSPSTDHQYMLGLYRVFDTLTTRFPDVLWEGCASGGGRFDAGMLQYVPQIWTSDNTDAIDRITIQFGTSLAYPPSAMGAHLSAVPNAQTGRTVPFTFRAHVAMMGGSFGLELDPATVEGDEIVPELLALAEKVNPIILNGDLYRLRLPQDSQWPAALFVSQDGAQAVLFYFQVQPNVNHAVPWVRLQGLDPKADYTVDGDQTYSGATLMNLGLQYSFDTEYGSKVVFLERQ
experimental readout: IC50 (nM)

> print(dat)
                         entry.smiles  result
1  OC[C@H]1NC[C@H](O)[C@@H](O)[C@H]1O    1800
